Every entry's value here was drawn from paper PMC12371494.

Catalogue of molecules with associated Kd
molecular target: YTHDC1 (Homo sapiens, UniProt Q96MU7)
# output: bare number, implied unit µM

These solved cases illustrate the format of a correct answer.
INSERT INTO measurements (molecule, unit_abbreviation, data_value) VALUES
  ('Cc1c(C(=O)NCc2cccnc2)sc2[nH]c(=S)[nH]c(=O)c12 [Compound 23]', 'µM', 120),
  ('Cc1c(C(=O)NCCCC(=O)O)sc2[nH]c(=S)[nH]c(=O)c12 [Compound 25]', 'µM', 32),
  ('Cc1c(C(=O)NCc2ccccc2)sc2[nH]c(=S)[nH]c(=O)c12 [Compound 22]', 'µM', 92),
  ('CCOC(=O)c1sc2[nH]c(=S)[nH]c(=O)c2c1C [Compound 21]', 'µM', 36),
  ('COC(=O)c1ccc(-c2csc3[nH]c(=S)[nH]c(=O)c23)cc1 [Compound 17]', 'µM', 5);

Switching to the query record.
input: Using the record for O=c1[nH]c(=S)[nH]c2scc(-c3ccc(O)cc3)c12 [Compound 19] , report its Kd.
output: 27
